Reference source: patent US20210324051A1

Assay System: Angola strain MARV GP ectodomain lacking residues 257-425 of the mucin-like domain (Marburg virus, Angola strain, UniProt Q1PD50 19-648)
Assay Protocol: ELISA
Measured Quantity: EC50 (µg/mL)

Binder: MR144 (antibody, V domains shown) V domain 1: QVQLQESGPGLVKPSETLSLTCTVSGDSISRYYWSWIRQPPGKGLEWIGYLYYSGSTDYNPSLKSRVTISVDTSKNQFSLNLTSVTAADTAVYYCARGSSRGIGVVSHWFDPWGQGT V domain 2: SYVLTQPPSVSVAPGQTARITCGGSNMGYKSVQWYQQRPGQAPVLVVYDDTDRPSGIPERFSGSNSGATATLTISSVEAGDEADYYCQVWDSSSDHHVVFGGGTQVTVL
Experimental Result: 8
//
Binder: MR72 human monoclonal antibody (antibody, V domains shown) VH: QLQLQESGPGLVKPSETLSLTCTVSGDSINNTNYYWAWIRQPPGKGLEYIGSIYYSGSTYYNPSLKSRVTMSVDASKNQFSLRLSSVTAADTAVYYCATHPTLGAFVLLWFGANFDHWGQGTLVTVSS VL: QAVVTQPPSVSGAPGQRVTISCTGSSSNIGANYDVHWYQQLPGTAPKLLMYSNTNRPSGVPDRFSGSKSGTSASLAITGLQAEDEADYYCQSYDNSLNSWVFGGGTQLTVL
Experimental Result: 4.7
//
Binder: MR241 (antibody, V domains shown) VH: QVQLQESGPGLVKPSETLSLTCTVSGASISGNFWSWIRQPPGKGLEYIGYMSDIGTTNYSPSLKSRVTISVDTSKNQFSLNLTSVTAADAAVYYCARLVAVPGFFYHYYMDVWGEGTLVTVSS VL: DIVMTQSPSSVSASVGDRVTITCRASQGISGWLAWYQQKPGKAPKLLIYATSTLQSGVPSRFSGSESGTAFTLTISSLQPEDFATYYCQQANSFPLTFGGGTKVEIK
Experimental Result: 4
//
Binder: MR232 (antibody, V domains shown) VH: QLQLQESGPGLVKPSETLSLTCAVSGGSISSSGYCWGWIRQPPGKGLEWIASICSSGTTYFNSSLKSRVSISIDTSRPQFLLNLRSLTAADTAVYYCARQRMELHFLEWLFPFDSWGQGTLVTVSS VL: DIVMTQSPATLSVSPGERATLSCRASQSVSSNLAWYQQKPGQAPRLLISGASTRATGIPARFSGSGSGTEFTLTISSLQSEDFAVYYCQQYINWPCSFGQGTKVDIK
Experimental Result: 1.3
